Target: Proteasome subunit beta (Trypanosoma cruzi)
Sequence (whole entry): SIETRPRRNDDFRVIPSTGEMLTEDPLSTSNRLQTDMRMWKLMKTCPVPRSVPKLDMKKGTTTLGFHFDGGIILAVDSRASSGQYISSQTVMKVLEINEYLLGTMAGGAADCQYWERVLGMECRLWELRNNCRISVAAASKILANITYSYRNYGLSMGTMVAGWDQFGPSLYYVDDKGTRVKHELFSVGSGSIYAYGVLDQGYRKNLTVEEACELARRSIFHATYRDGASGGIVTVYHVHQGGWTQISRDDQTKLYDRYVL
Experiment: Trypanosoma cruzi proteasome chymotrypsin-like activity (TcProtChymo) assay.
Assay type: functional
Set-up: scale not given: in the data most compounds retested in dose-response had high values
Conditions: 9.37 µM
Lab note: compare Percent Effect against 10%. Equal or greater, write Satisfied. Smaller, write Not satisfied.

Query: Reported Percent Effect reaches at least 10% for CC(=O)N(Cc1ncc(C(C)C)o1)C1CCN(CCn2cccn2)C1 (stereo not given) ?
Reply: Satisfied

Query: Does the molecule CCCNC(=O)C(C)NC(=O)CCc1ccccc1Br (stereo not given) have recorded Percent Effect that is 10% or more?
Reply: Satisfied

Query: Exam item: decide whether the reported Percent Effect for "CS(=O)(=O)NCCCNC(=O)c1cccc(-n2cccc2)c1" is at least 10%.
Reply: Satisfied

Query: Record CCCc1nc(CN2CCOC(CNc3cccnn3)C2)cs1 (stereo not given) ; criterion: Percent Effect no lower than 10%. Met?
Reply: Satisfied

Query: Threshold query (Percent Effect >= 10%) on "CCn1nccc1CNC(=O)C1CC1"
Reply: Satisfied

Continuing:
Query: Could you tell me if the measured Percent Effect of CCN1CC2(CC1=O)CN(C(=O)c1ccco1)CCN(C(=O)N(C)C)C2 (stereo not given) reaches 10% or more?
Reply: Satisfied

Query: Entry "Cn1cc(-c2ncnc3c2CCN(C(=O)N2CCOCC2)CC3)cn1" : is its Percent Effect no less than 10%?
Reply: Not satisfied

Query: For this molecule, is measured Percent Effect 10% or higher? "O=C(c1cccnc1)N1CC[C@H](OCC2CC2)[C@@H]1Cc1cccnc1"
Reply: Not satisfied

Query: Test whether the molecule CCOC(CC)C(=O)NCCC(=O)N1CCN(c2ccccn2)CC1 (stereo not given) records Percent Effect of 10% or higher.
Reply: Not satisfied

Query: Does the reported Percent Effect for "CC(C)n1cc(CN2CCCN(C(=O)c3nccnc3N)CC2)cn1" fall at or above the 10% mark?
Reply: Satisfied

Query: Hello, I need to know if "O=C(CN1CCC(N2CCNC2=O)CC1)NCC(F)(F)F" has measured Percent Effect not below 10%. Thanks!
Reply: Not satisfied

Query: Entry Cc1nc(C)n(CC2CCCN(Cc3nnc(-c4ccco4)o3)C2)n1 (stereo not given) : is its Percent Effect no less than 10%?
Reply: Not satisfied

Query: Exam item: decide whether the reported Percent Effect for Cc1ccsc1C(=O)N1CC(C(=O)N2CCOCC2)C2(CCOCC2)C1 (stereo not given) is at least 10%.
Reply: Satisfied

Query: Does the molecule "CC(=O)N(C)CC(=O)Nc1cccc(N2CCN(CC3CC3)CC2)c1" have recorded Percent Effect that is 10% or more?
Reply: Not satisfied

Query: Is Percent Effect for "O=C([C@@H]1C[C@H]2[C@H](CCN2Cc2nccs2)O1)N1CCOCC1" at or above 10%?
Reply: Satisfied

Query: Given CC(C)C1CN(c2ncccn2)CCC(=O)N1Cc1ccc(F)cc1 (stereo not given) , state whether its Percent Effect is at least 10%.
Reply: Not satisfied

Query: Could you tell me if the measured Percent Effect of "CC(=O)N1CCN(Cc2csc(-c3cnn(C)c3)n2)CC1" reaches 10% or more?
Reply: Not satisfied

Query: Check if Percent Effect >= 10% (inclusive). Item: Cn1c(CC2CCS(=O)(=O)C2)nnc1SCCOc1cccc(Cl)c1 (stereo not given)
Reply: Satisfied

Query: Percent Effect >= 10% for "COc1c(CNC2CCN(c3ncccn3)CC2)c(C(C)C)nn1C" ?
Reply: Not satisfied

Query: Please indicate if the recorded Percent Effect for "Cn1c(C2CC2)nc2c1CCN(CCOc1ccc(C#N)cc1)C2" meets or exceeds 10%.
Reply: Not satisfied

Query: Test whether the molecule "Cc1nn(C)c(C)c1CC(=O)N1CCC(Nc2cccnn2)CC1" records Percent Effect of 10% or higher.
Reply: Not satisfied

Query: // inclusive: Percent Effect at least 10%? input: "Cc1ccc([C@]2(O)CC[C@H]3CN(Cc4cccc(Cl)c4Cl)C[C@H]32)nc1"
Reply: Satisfied

Query: In plain terms: is recorded Percent Effect at least 10% for "CN(C(=O)CCNC(=O)NC1CCCCC1)c1ccccc1" ?
Reply: Satisfied
